tested on: RARb:RXRa (NR concentration 270 nM, RXRa partner concentration 90 nM); assay: PBM binding z-score (relative to random genomic background probes); higher = stronger binding; sequences stand for … in GC…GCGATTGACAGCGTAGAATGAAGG
# maps each entry to its PBM binding z-score
Please reply with the value in numeric form only.

Measured PBM binding z-score, GCTTGTGGATCAAGGTTAAGAAAGACTAAGCTAA : 0.702

Measured PBM binding z-score, TCCTATAGGTAAACAGGTGAAAGTCCGTAAGTTA : 0.692

Measured PBM binding z-score, GCGACTGGGGCATCAGCAGGTGACCATAACTTAA : 0.702

====

# maps each entry to its PBM binding z-score
system: PPARg:RXRa 270nM:90nM, anti-RXR (NR concentration 270 nM, RXRa partner concentration 90 nM); experiment: PBM binding z-score (relative to random genomic background probes); higher = stronger binding; sequences stand for … in GC…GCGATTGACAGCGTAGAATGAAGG
Please reply with the value in numeric form only.

# SEQUENCE INPUT, PBM binding z-score
measured = [
    ("TTACCAGGGTGAAAGGTCGTTGATGCACGCCTTG", 7.7),
]

Now look at this one.
Measured PBM binding z-score, ACTAGCAGGCCAAGGTTGGGTCACTCAAACAAAG : 1.19

====

# maps each entry to its PBM binding z-score
system: RARg homodimer (NR concentration 270 nM); experiment: PBM binding z-score (relative to random genomic background probes); higher = stronger binding; sequences stand for … in GC…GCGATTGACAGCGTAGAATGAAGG
Please reply with the value in numeric form only.

Here are 3 sequences together with their reported answers.
# SEQUENCE INPUT, PBM binding z-score
records = [
    ("TCTTGTAGACCAACAGGAGGTTAAGAAAGATCGA", 0.151),
    ("TCTTGTCGATCAAGCAGGTTAAGAAAGCCTGAGT", -0.273),
    ("CCTAGTTAGTCAGGAGGTCACACACCGGATATGA", 3.72),
]

Now look at this one.
Measured PBM binding z-score, TCATGTAGATCAACAGGAGGTTAAGAAAGATCGA : 0.374

====

# maps each entry to its PBM binding z-score
system: RARg:RXRa (NR concentration 270 nM, RXRa partner concentration 90 nM); assay: PBM binding z-score (relative to random genomic background probes); higher = stronger binding; sequences stand for … in GC…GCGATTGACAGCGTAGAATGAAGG
Please reply with the value in numeric form only.

Measured PBM binding z-score, ACTTACGGGTCAACGAGGTTGTAGCACGCGTATA : 5.34

====

system: RARb homodimer (NR concentration 270 nM); assay: PBM binding z-score (relative to random genomic background probes); higher = stronger binding; sequences stand for … in GC…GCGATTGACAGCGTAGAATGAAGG
Classify as follows. Reported PBM binding z-score greater than or equal to 3: 1. Reported PBM binding z-score below: -1.

Worked examples, 8 sequences total:
# SEQUENCE INPUT, TEST TARGET, QUALITATIVE LABEL
measured = [
    ("CGAACTAGGTCATCCAGGACGGTGAATACATTGA", "RARb homodimer (NR concentration 270 nM)", -1),
    ("CCTTACGGGTCACGAGGTTATAACACGACGAGCG", "RARb homodimer (NR concentration 270 nM)", 1),
    ("TCAGATAGGTAATACAGGTGAAAGTCGGCATCTA", "RARb homodimer (NR concentration 270 nM)", -1),
    ("ATCGAAAGGTCGACGGGGTGAGTATACACCGTTT", "RARb homodimer (NR concentration 270 nM)", 1),
    ("TCTAGTTGGTCATAGGTCACACACTCGAAATGCG", "RARb homodimer (NR concentration 270 nM)", 1),
    ("CCGACTGGGTCAGAAAGGTTACCATACCATCCGG", "RARb homodimer (NR concentration 270 nM)", 1),
    ("CGTCCAAGGTCAAGGTTAGTGAAAGAGACTCGAA", "RARb homodimer (NR concentration 270 nM)", 1),
    ("TCATATATGTAATACAGGTGAAAGTCGGCATCTA", "RARb homodimer (NR concentration 270 nM)", -1),
]

Query: Threshold query (PBM binding z-score >= 3) on CTACCAAGGTGCACAAGGTCGTTGATTACTATTC
Reply: -1

Query: Threshold query (PBM binding z-score >= 3) on CAAACTAGGTAACCGGAAGGTCAAAGTCCGCATG
Reply: 1

Query: Threshold query (PBM binding z-score >= 3) on TCTGCTAGGTCTGTTGGTCAGCTAACGAGCTGCC
Reply: -1

Query: Threshold query (PBM binding z-score >= 3) on AGAACAAGGGCACGCTGAGTTGATAGCAGAGTAG
Reply: -1

Query: Threshold query (PBM binding z-score >= 3) on CCTACTGGGGCAAGGTCATTGATCAGTCAAAGCA
Reply: 1

====

test system: RXRa homodimer (NR concentration 180 nM); assay: PBM binding z-score (relative to random genomic background probes); higher = stronger binding; sequences stand for … in GC…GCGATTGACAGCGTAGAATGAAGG
MEASURED METRIC: PBM binding z-score
Please reply with the value in numeric form only.

Here are 3 sequences together with their reported answers.
# SEQUENCE INPUT, PBM binding z-score
data = [
    ("CCTACTGGGCCAAGAAGGTCATTGATGCCGATAA", 2.9),
    ("AGTCGAAGTTCACTAGGTAACGTAAGATTCAGCT", 1.6),
    ("CGTCCAATGTCAAAGGTCAGTGAAGAGATGACGG", 6.57),
]

Measured PBM binding z-score, CGAACTAGGTCAAGGACAGTGAGTCTCCGCACGC : 2.28

Measured PBM binding z-score, GGAACGAAGGCAAAGTTGATAGCATCTGTCGACG : -0.084

Measured PBM binding z-score, TAGCCTACGTCATGGGCCAGTATACCACGCGAAC : -0.0748

Measured PBM binding z-score, CAAACTAGGTCACGAAAGGTCCAAGTCGAATGAC : 4.45

Measured PBM binding z-score, ATACCATGGTGATCGTGAGGTCGTTGATACTAAC : 0.893

====

tested on: PXR homodimer (NR concentration 270 nM); experiment: PBM binding z-score (relative to random genomic background probes); higher = stronger binding; sequences stand for … in GC…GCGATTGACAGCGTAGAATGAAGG
Classify as follows. Reported PBM binding z-score greater than or equal to -0.08: Fulfilled. Reported PBM binding z-score below: Not fulfilled.

# SEQUENCE INPUT, QUALITATIVE LABEL
records = [
    ("GCATATAGTTAATACAAGGTGAAAGTCCGATTGT", "Fulfilled"),
    ("TGTCAAAGTTCAAAGGTAACGTAGGTATCCACAC", "Fulfilled"),
    ("CCTACTGGGGCATTCAGAGGTCATTGATCATATG", "Fulfilled"),
    ("TCAGACAGGTGAAGGTAACTAAGGTACGCAGTCG", "Fulfilled"),
    ("ACAGCCAGGTGATGAAGGTAACTCAGGCTATCAT", "Not fulfilled"),
]

Query: Threshold query (PBM binding z-score >= -0.08) on TCGAGTAGGTTACCAATGAGGCATTCAGCTTTCT
Reply: Not fulfilled

Query: Threshold query (PBM binding z-score >= -0.08) on TTACCAAGGTGAAAGGTCGATGATGCACGCCTTG
Reply: Not fulfilled

Query: Threshold query (PBM binding z-score >= -0.08) on TCTAGTTGCTCAAAGGTCACACACTCGAAATGCG
Reply: Fulfilled

====

tested on: PPARa:RXRa (NR concentration 270 nM, RXRa partner concentration 90 nM); test: PBM binding z-score (relative to random genomic background probes); higher = stronger binding; sequences stand for … in GC…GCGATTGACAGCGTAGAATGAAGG
# maps each entry to its PBM binding z-score

Here are 5 sequences together with their reported answers.
# SEQUENCE INPUT, PBM binding z-score
records = [
    ("CCTCTGAGGACAGAAGGTCAGAGCTGTCCGCTTT", 2.02),
    ("CCATACGGGTCACTGACAGGTTATAGCATTTGGA", 4.83),
    ("CCGACTGGGGCAAGGTTATCATAACGCACAGCCA", 1.56),
    ("CGTCCAAGGTCATAGGAGGGCAGTGAAGACAGAT", 5.68),
    ("CAAACTAGGTCACCGGAAGGTCAAAGGCCGCATG", 6.34),
]

Measured PBM binding z-score, CGAACTAGGTCGTTGACAGGACAGTGAATAGTAA : 1.98

Measured PBM binding z-score, TCTCGGAGGACACGAAGATCAGAGCTTTCCAGAG : 0.0727
